# System: D(2) dopamine receptor (Rattus norvegicus)
# Sequence (P61169 whole entry): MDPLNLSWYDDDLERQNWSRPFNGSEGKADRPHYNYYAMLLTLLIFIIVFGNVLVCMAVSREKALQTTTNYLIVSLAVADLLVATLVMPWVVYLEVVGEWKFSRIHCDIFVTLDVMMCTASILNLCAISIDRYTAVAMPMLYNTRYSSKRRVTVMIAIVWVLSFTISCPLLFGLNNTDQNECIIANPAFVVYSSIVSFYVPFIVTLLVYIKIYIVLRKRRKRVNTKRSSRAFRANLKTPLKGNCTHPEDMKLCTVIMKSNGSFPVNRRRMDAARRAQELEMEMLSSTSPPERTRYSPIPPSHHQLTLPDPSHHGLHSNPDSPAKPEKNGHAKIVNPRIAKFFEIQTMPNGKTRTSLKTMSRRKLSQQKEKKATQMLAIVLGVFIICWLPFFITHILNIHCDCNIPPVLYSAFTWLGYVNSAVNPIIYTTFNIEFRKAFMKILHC
# Protocol Summary: Displacement of [3H]spiperone from dopaminergic D2 receptor in rat striatum homogenates after 60 mins by liquid scintillation counting
Assay Metric: Ki (nM)
One number for each entry, in nM.

Fc1ccc2c(C3CCN(CCCOc4ccc(-c5nc6ccccc6o5)c(F)c4)CC3)noc2c1    143

Requested read-out: Ki. Entry: Fc1ccc2c(C3CCN(CCCOc4ccc(-c5nc6ccccc6o5)cc4)CC3)noc2c1
22.1

* * *

# System: 5-hydroxytryptamine receptor 2A (Rattus norvegicus)
# Sequence (P14842 whole entry): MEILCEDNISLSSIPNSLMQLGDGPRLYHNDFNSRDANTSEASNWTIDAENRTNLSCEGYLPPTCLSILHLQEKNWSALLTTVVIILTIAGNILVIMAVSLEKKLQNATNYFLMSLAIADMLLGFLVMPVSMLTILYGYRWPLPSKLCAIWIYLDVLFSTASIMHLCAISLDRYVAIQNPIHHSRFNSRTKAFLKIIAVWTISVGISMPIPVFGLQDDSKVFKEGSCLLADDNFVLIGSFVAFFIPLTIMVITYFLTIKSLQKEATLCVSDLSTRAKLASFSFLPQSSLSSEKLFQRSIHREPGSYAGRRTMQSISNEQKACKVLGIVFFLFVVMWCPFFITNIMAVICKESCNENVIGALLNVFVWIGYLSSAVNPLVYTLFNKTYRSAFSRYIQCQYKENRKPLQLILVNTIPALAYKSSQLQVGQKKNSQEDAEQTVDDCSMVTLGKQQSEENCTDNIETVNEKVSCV
pKi: −log10 of the molar value.
Label Y when pKi is at or above 7; anything below gets N.

Worked cases, answers included:
FC(F)(F)c1cccc(N2CCN(CCCOc3ccc(-c4nc5ccccc5o4)cc3)CC2)c1    N
O=C(c1ccc(F)cc1F)C1CCN(CCCOc2ccc(-c3nc4ccccc4o3)cc2)CC1    N

# check: pKi of c1ccc2oc(-c3ccc(OCCCN4CCC(c5nc6ccccc6o5)CC4)cc3)nc2c1 is greater than or equal to 7
N

Could you verify whether the entry c1ccc(N2CCN(CCCOc3ccc(-c4nc5ccccc5o4)cc3)CC2)cc1 shows pKi of no less than 7?
N

Tell me whether pKi is at least 7 here: Fc1ccc2c(C3CCN(CCCOc4ccc(-c5nc6ccccc6o5)cc4)CC3)noc2c1
Y

Tell me whether pKi is at least 7 here: Clc1cccc(N2CCN(CCCOc3ccc(-c4nc5ccccc5o4)cc3)CC2)c1Cl
N

Reported pKi at or above 7? Fc1ccc2c(C3CCN(CCCOc4ccc(Cc5nc6ccccc6o5)cc4)CC3)noc2c1
Y

Test whether the compound c1ccc2oc(-c3ccc(OCCCN4CCC(c5nc6ccccc6s5)CC4)cc3)nc2c1 records pKi of 7 or higher.
N

* * *

The following are reported Ki results, target or system 5-hydroxytryptamine receptor 2C (Rattus norvegicus, UniProt P08909).
One number for each entry, in nM.

Fc1ccc2c(C3CCN(CCCOc4ccc(-c5nc6ccccc6o5)cc4)CC3)noc2c1    186

# evaluate next
// returns reported Ki for input Fc1ccc2c(C3CCN(CCCOc4ccc(Cc5nc6ccccc6o5)cc4)CC3)noc2c1
1990

* * *

# Protocol Summary: Acute toxicity in Sprague-Dawley rat
# Type: organism-based
# Stated Conditions: in vivo
Assay Metric: LD50 (mg/kg)
Answers are plain numbers, in mg/kg.

Examples from the recorded data:
Fc1ccc2c(C3CCN(CCCOc4ccc(CCc5nc6ccccc6o5)cc4)CC3)noc2c1    398
CC(c1ccc(OCCCN2CCC(c3noc4cc(F)ccc34)CC2)cc1)c1nc2ccccc2o1 (stereo not given)    614

Please examine the following record next.
Quick one: LD50 of O=C(c1ccc(F)cc1F)C1CCN(CCCOc2ccc(-c3nc4ccccc4o3)cc2)CC1 ?
369

* * *

# System: 5-hydroxytryptamine receptor 7 (Rattus norvegicus, UniProt P32305)
# Sequence (P32305 whole entry): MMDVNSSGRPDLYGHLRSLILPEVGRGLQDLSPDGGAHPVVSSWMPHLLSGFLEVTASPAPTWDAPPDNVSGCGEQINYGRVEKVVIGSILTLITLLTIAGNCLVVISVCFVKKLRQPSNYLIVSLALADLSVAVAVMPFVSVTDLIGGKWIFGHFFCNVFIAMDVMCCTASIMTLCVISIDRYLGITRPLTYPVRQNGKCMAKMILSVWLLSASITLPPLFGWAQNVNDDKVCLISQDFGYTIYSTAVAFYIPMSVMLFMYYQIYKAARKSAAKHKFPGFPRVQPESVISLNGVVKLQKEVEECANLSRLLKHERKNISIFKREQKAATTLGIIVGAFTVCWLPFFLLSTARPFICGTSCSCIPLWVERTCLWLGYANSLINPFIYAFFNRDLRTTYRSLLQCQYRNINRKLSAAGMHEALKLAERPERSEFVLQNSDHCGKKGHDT
Assay Metric: pKi
Numbers only, as −log10 of the molar value.

Provide the reported pKi of each entry below, same order.
1. Fc1ccc2c(C3CCN(CCCOc4ccc(Cc5nc6ccccc6o5)cc4)CC3)noc2c1
2. Fc1ccc2c(C3CCN(CCCOc4ccc(-c5nc6ccccc6o5)cc4)CC3)noc2c1

1: 7.72; 2: 6.12

* * *

# System: 5-hydroxytryptamine receptor 1A (Rattus norvegicus)
# Sequence (P19327 whole entry): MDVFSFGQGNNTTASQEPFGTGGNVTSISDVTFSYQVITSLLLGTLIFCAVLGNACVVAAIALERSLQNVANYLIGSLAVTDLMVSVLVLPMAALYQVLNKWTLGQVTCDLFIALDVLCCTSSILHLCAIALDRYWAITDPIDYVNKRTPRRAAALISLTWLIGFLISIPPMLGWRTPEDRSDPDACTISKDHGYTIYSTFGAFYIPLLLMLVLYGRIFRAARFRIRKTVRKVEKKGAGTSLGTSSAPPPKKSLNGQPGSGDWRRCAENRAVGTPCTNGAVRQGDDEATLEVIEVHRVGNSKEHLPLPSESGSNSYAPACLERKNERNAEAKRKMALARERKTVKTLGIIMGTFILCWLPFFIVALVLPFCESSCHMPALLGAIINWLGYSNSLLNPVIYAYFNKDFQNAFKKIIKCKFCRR
Hi there, I'd appreciate the recorded log10 of Ki for every entry that follows.
Transform log10 | Measure Ki | Unit nM

Fc1ccc2c(C3CCN(CCCOc4ccc(CCc5nc6ccccc6o5)cc4)CC3)noc2c1    1.49
COc1cc(OCCCN2CCC(c3noc4cc(F)ccc34)CC2)ccc1-c1nc2ccccc2o1    3.19

Items follow; give log10 of Ki for each.
1. COc1ccccc1N1CCN(CCCOc2ccc(-c3nc4ccccc4[nH]3)cc2)CC1
2. O=C(c1ccc(F)cc1F)C1CCN(CCCOc2ccc(-c3nc4ccccc4o3)cc2)CC1
3. Cc1cccc(N2CCN(CCCOc3ccc(-c4nc5ccccc5o4)cc3)CC2)c1C
4. Fc1ccc2c(C3CCN(CCCOc4ccc(-c5nc6ccccc6o5)cc4)CC3)noc2c1
5. Fc1ccc2c(C3CCN(CCCOc4ccc(Cc5nc6ccccc6o5)cc4)CC3)noc2c1
6. Fc1ccc2c(C3CCN(CCCOc4ccc(-c5nc6ccccc6o5)c(F)c4)CC3)noc2c1

[2.41, 2.06, 3.67, 1.92, 1.33, 2.37]

// data source = ChEMBL document CHEMBL3632483
